- ASSAY_OVERVIEW: BPH Preclinical Study 4: tissue pharmacokinetics of paclitaxel
- Assay type: in vivo, dog
- SETTINGS: male, mongrel, dog, prostatic urethra, other: transurethral drug-coated balloon catheter, 6.8 mg
MEASURE_NAME: concentration at 1 h (ng/g)
Report the value in ng/g with no unit label.

Notebook: CC(=O)O[C@H]1C(=O)[C@@]2(C)[C@H]([C@H](OC(=O)c3ccccc3)[C@]3(O)C[C@H](OC(=O)[C@H](O)[C@@H](NC(=O)c4ccccc4)c4ccccc4)C(C)=C1C3(C)C)[C@]1(OC(C)=O)CO[C@@H]1C[C@@H]2O , concentration at 1 h read as 28000

###

- ASSAY_OVERVIEW: Human clinical study, BPH: paclitaxel in blood, urine, semen
- Format: in vivo
- SETTINGS: male, human, plasma, 2.4 μg of paclitaxel per millimeter squared; 5 hours
MEASURE_NAME: concentration at 5 h (ng/mL)
Value expressed in ng/mL; do not type the unit.

Consider CC(=O)O[C@H]1C(=O)[C@@]2(C)[C@H]([C@H](OC(=O)c3ccccc3)[C@]3(O)C[C@H](OC(=O)[C@H](O)[C@@H](NC(=O)c4ccccc4)c4ccccc4)C(C)=C1C3(C)C)[C@]1(OC(C)=O)CO[C@@H]1C[C@@H]2O . Its measured concentration at 5 h is 0.1

###

- ASSAY_OVERVIEW: Human clinical study, BPH: paclitaxel in blood, urine, semen
- Assay type: in vivo
- SETTINGS: male, human, plasma, 2.4 μg of paclitaxel per millimeter squared; 3 hours
MEASURE_NAME: concentration at 3 h (ng/mL)
Unit ng/mL implied. Number only.

// sample CC(=O)O[C@H]1C(=O)[C@@]2(C)[C@H]([C@H](OC(=O)c3ccccc3)[C@]3(O)C[C@H](OC(=O)[C@H](O)[C@@H](NC(=O)c4ccccc4)c4ccccc4)C(C)=C1C3(C)C)[C@]1(OC(C)=O)CO[C@@H]1C[C@@H]2O , its concentration at 3 h was 0.1

###

- ASSAY_OVERVIEW: BPH Preclinical Study 4: tissue pharmacokinetics of paclitaxel
- Format: in vivo, dog
- SETTINGS: male, mongrel, dog, prostate, other: transurethral drug-coated balloon catheter, 6.8 mg; standard dose arm; 28 days
MEASURE_NAME: concentration at 28 days (ng/g)
Answer with a number only, understood to be in ng/g.

// recorded concentration at 28 days for CC(=O)O[C@H]1C(=O)[C@@]2(C)[C@H]([C@H](OC(=O)c3ccccc3)[C@]3(O)C[C@H](OC(=O)[C@H](O)[C@@H](NC(=O)c4ccccc4)c4ccccc4)C(C)=C1C3(C)C)[C@]1(OC(C)=O)CO[C@@H]1C[C@@H]2O [paclitaxel] : 20

###

- ASSAY_OVERVIEW: Human clinical study, BPH: paclitaxel in blood, urine, semen
- Assay type: in vivo
- SETTINGS: male, human, plasma, 2.4 μg of paclitaxel per millimeter squared; 10 hours
MEASURE_NAME: concentration at 10 h (ng/mL)
The reply should be a number in ng/mL, with the unit left off.

concentration at 10 h reported for this compound CC(=O)O[C@H]1C(=O)[C@@]2(C)[C@H]([C@H](OC(=O)c3ccccc3)[C@]3(O)C[C@H](OC(=O)[C@H](O)[C@@H](NC(=O)c4ccccc4)c4ccccc4)C(C)=C1C3(C)C)[C@]1(OC(C)=O)CO[C@@H]1C[C@@H]2O : 0.07
